Listed next: entries and their corresponding MIC50.
- Test system: Klebsiella pneumoniae
- ASSAY_OVERVIEW: Antimicrobial activity against Klebsiella pneumoniae by broth dilution method
- Assay type: functional

{"COMPOUND": "C[C@@H](O)[C@H]1C(=O)N2C(C(=O)O)=C(S[C@@H]3CN[C@H](C(=O)N(C)C)C3)[C@H](C)[C@H]12", "UNIT": "µg/mL", "COMPARISON_SIGN": "≤", "MIC50": 0.06}
{"COMPOUND": "CC(C)(O/N=C(\\C(=O)N[C@@H]1C(=O)N2C(C(=O)[O-])=C(C[n+]3ccccc3)CS[C@H]12)c1csc(N)n1)C(=O)O", "UNIT": "µg/mL", "COMPARISON_SIGN": ">", "MIC50": 32}
{"COMPOUND": "CO/N=C(\\C(=O)N[C@@H]1C(=O)N2C(C(=O)[O-])=C(C[N+]3(C)CCCC3)CS[C@H]12)c1csc(N)n1", "UNIT": "µg/mL", "COMPARISON_SIGN": "=", "MIC50": 4}
{"COMPOUND": "CC1(C)[C@H](NC(=O)/C(=N\\OCc2cc(=O)c(O)cn2O)c2csc(N)n2)C(=O)N1OS(=O)(=O)O (stereo in doubt)", "UNIT": "µg/mL", "COMPARISON_SIGN": "=", "MIC50": 16}
{"COMPOUND": "C[C@@H](O)[C@H]1C(=O)N2C(C(=O)O)=C(SCCNC=N)C[C@H]12 [IMIPENEM ANHYDROUS]", "UNIT": "µg/mL", "COMPARISON_SIGN": "=", "MIC50": 1}
